Assay: physchem
Conditions: pH 7.4, aqueous buffer, kinetic from dmso stock
observable: solubility

compound: Nc1ccc(/N=N/c2ccccc2)c(N)n1 [Phenazolpyridine, reference compound]
observable: solubility
val: 0.026 mg/mL
--
compound: CCCSc1ccc2nc(NC(=O)OC)[nH]c2c1 [Albendazole, reference compound]
observable: solubility
val: < 0.001 mg/mL

* * *

Test: Mouse PK and tissue distribution study (non-compartmental analysis)
Conditions: male, C57BL/6, mouse, in vivo, po, 10 mg/kg, Cmax Obs, mice, PO 10 mg/kg PDN, liver
Description: The in-life study (Animal Study Protocol Number: NIH ORS-51) was conducted at the NIH Animal Facility by the Division of Veterinary Resources (DVR, Bethesda, MD). In this study, 25–35 g male C57BL/6 mice (Charles River Laboratories, Frederick, MD) were used. […] The area under the concentration vs. time curve (AUC) was calculated using the linear trapezoidal method. […] Bioavailability (F) was calculated using ratios of dose-normalized AUC of PO and IV administration.

compound_structure: O=C(Nc1ccc([N+](=O)[O-])cc1Cl)c1cc(Cl)ccc1OC(=O)N1CCNCC1
measure_unit: ng/g
Cmax: 240

* * *

Assay: Hamster PK and lung concentration study (non-compartmental analysis)
Conditions: male, LVG golden Syrian, hamster, in vivo, iv, 3 mg/kg, t1/2 Observed, hamsters, IV 3 mg/kg PDN, lung

compound_structure: O=C(Nc1ccc([N+](=O)[O-])cc1Cl)c1cc(Cl)ccc1OC(=O)N1CCNCC1
half-life [h]: 1.1

* * *

Assay: Mouse PK and tissue distribution study (non-compartmental analysis)
Settings: male, C57BL/6, mouse, in vivo, po, 10 mg/kg, Cmax Obs, mice, PO 10 mg/kg PDN, lung

molecule: O=C(Nc1ccc([N+](=O)[O-])cc1Cl)c1cc(Cl)ccc1OC(=O)N1CCNCC1 [PDN]
Cmax, ng/g: 22600

* * *

Test: Hamster PK and lung concentration study (non-compartmental analysis)
Conditions: male, LVG golden Syrian, hamster, in vivo, po, 30 mg/kg, t1/2 Observed, hamsters, PO 30 mg/kg PDN, plasma
observable: half-life

compound_structure: O=C(Nc1ccc([N+](=O)[O-])cc1Cl)c1cc(Cl)ccc1OC(=O)N1CCNCC1
val: ~1.8 h

* * *

Test: Hamster PK and lung concentration study (non-compartmental analysis)
Conditions: male, LVG golden Syrian, hamster, in vivo, po, 30 mg/kg
observable: bioavailability

compound_structure: O=C(Nc1ccc([N+](=O)[O-])cc1Cl)c1cc(Cl)ccc1OC(=O)N1CCNCC1
observable: bioavailability
val: ~64%

* * *

Test: Mouse PK and tissue distribution study (non-compartmental analysis)
Conditions: male, C57BL/6, mouse, in vivo, iv, 10 mg/kg, t1/2 Obs, mice, IV 10 mg/kg PDN, lung

compound_structure: O=C(Nc1ccc([N+](=O)[O-])cc1Cl)c1cc(Cl)ccc1OC(=O)N1CCNCC1
measure_unit: h
half-life: 3.51

* * *

Experiment: Mouse PK and tissue distribution study (non-compartmental analysis)
Conditions: male, C57BL/6, mouse, in vivo, iv, 10 mg/kg, CLp Obs, mice, IV 10 mg/kg PDN, plasma
observable: clearance (mL/min)

compound_structure: O=C(Nc1ccc([N+](=O)[O-])cc1Cl)c1cc(Cl)ccc1OC(=O)N1CCNCC1
observable: clearance
val: 1.02

* * *

Assay: Incubation in liver cytosolic fractions
Format: in vitro ADME
Settings: mouse, hamster, human, read-out: in vitro metabolic half-life (t1/2)
observable: half-life

compound_structure: O=C(Nc1ccc([N+](=O)[O-])cc1Cl)c1cc(Cl)ccc1OC(=O)N1CCNCC1
observable: half-life
val: > 2 h
